SYSTEM UNDER TEST: ERα (Homo sapiens, UniProt P03372)
Construct: host or cells: MCF7
Sequence (P03372 whole entry): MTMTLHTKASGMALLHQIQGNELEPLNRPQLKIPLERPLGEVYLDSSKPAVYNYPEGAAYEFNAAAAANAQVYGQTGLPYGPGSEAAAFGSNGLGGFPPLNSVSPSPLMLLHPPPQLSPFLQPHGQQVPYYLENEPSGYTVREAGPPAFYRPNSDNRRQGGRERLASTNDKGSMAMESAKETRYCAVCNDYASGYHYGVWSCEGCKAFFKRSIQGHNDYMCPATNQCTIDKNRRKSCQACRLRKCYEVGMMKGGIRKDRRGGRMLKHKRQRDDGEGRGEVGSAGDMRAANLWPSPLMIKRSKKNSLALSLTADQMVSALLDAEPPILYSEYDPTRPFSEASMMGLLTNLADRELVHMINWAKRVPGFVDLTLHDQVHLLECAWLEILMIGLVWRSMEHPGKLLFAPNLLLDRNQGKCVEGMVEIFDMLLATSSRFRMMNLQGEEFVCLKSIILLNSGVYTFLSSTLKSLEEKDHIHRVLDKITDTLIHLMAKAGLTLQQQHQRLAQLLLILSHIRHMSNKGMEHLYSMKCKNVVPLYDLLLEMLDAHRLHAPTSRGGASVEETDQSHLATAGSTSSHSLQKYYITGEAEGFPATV
PROCEDURE TEXT: Estrogen receptor degradation activity: breast cancer cell ERα in cell western assay (MCF7 cells)
Assay type: cell-based
PROTOCOL CONDITIONS: 4 hours post compound addition, concentration which degrades 50% of the estrogen receptor, read-out: Degradation IC50
Label 1 when DC50 is strictly below 0.4 nM; at or above that, label -1.

## Input Confirm or reject: DC50 of O=C(O)c1c(F)cc2c(c1F)CCCC(c1ccc(Cl)cc1Cl)=C2c1ccc(CC2CN(CCCF)C2)cc1 [Example 225] lies strictly below 0.4 nM
## Output -1

## Input Answer whether the compound O=C(O)c1ccc2c(c1)CCCC(c1cccc(C(F)(F)F)c1Cl)=C2c1ccc(CC2CN(CCC(F)(F)F)C2)cc1 [Example 257] has DC50 strictly less than 0.4 nM
## Output -1

## Input Consider the compound COc1cc(F)ccc1C1=C(c2ccc(CC3CN(CCCF)C3)cc2)c2ccc(C(=O)O)cc2CCC1 [Example 36] . Is its DC50 strictly less than 0.4 nM?
## Output -1

## Input Strictly below 0.4 nM: is that where DC50 of O=C(O)c1ccc2c(c1)CCCC(c1ccc(Cl)cc1C(F)F)=C2c1ccc(CC2CN(CCCF)C2)cc1 [Example 221] sits?
## Output 1

## Input Is DC50 of Cc1cc(F)ccc1C1=C(c2ccc(CC3CN(CCC(F)F)C3)cc2)c2ccc(C(=O)O)cc2CCC1 [Example 279] strictly below 0.4 nM?
## Output 1

## Input Lab log: compare recorded DC50 with 0.4 nM; is it strictly lower for CC(O)(c1ccc(C2=C(c3ccc(Cl)cc3Cl)CCCc3cc(C(=O)O)ccc32)cc1)C1CN(CCCF)C1.Cl (single isomer, unassigned; isomer 1) [Example 235] ?
## Output -1

## Input Strictly below 0.4 nM: is that where DC50 of Cl.[2H]C([2H])(CCF)N1CC(Cc2ccc(C3=C(c4ccc(Cl)cc4Cl)CCCc4cc(C(=O)O)ccc43)cc2)C1 [Example 208] sits?
## Output 1

## Input Identify whether the compound CC1CCc2cc(C(=O)O)ccc2C(c2ccc(CC3CN(CCCF)C3)cc2)=C1c1ccc(F)cc1C(F)(F)F (racemic) [Example 312] records DC50 below 0.4 nM.
## Output 1

## Input Is DC50 strictly under 0.4 nM for the entry O=C(O)c1ccc2c(c1)SCC(c1ccc(F)cc1F)=C2c1ccc(CC2CN(CCCF)C2)cc1 [Example 314] ?
## Output -1

## Input Given O=C(O)c1ccc2c(c1)CCCC(c1ccc(Cl)cc1Cl)=C2c1ccc(C(O)C2CN(CCCF)C2)cc1 (single isomer, unassigned) [Example 41] , is recorded DC50 strictly lower than 0.4 nM?
## Output -1

## Input In plain terms, does O=C(O)c1ccc2c(c1)CCCC(c1ncc(Cl)cc1F)=C2c1ccc(CC2CN(CCCF)C2)cc1 [Example 219] come in under 0.4 nM for DC50?
## Output -1

## Input Regarding O=C(O)c1ccc2c(c1)CCCC(c1c(F)cccc1Cl)=C2c1ccc(CC2CN(CCCF)C2)cc1 [Example 220] , kindly confirm whether its DC50 is beneath 0.4 nM.
## Output 1

## Input Determine if O=C(O)c1ccc2c(c1)CCCC(c1cccc(C(F)(F)F)c1F)=C2c1ccc(CC2CN(CCC(F)F)C2)cc1 [Example 288] shows DC50 strictly lower than 0.4 nM.
## Output -1

## Input Strictly below 0.4 nM: is that where DC50 of O=C(O)c1ccc2c(c1)CCCC([C@@H]1C[C@H]1C1CCC(F)(F)CC1)=C2c1ccc(CC2CN(CCCF)C2)cc1 [Example 331] sits?
## Output -1

## Input Answer whether the compound Cc1c(Cl)cccc1C1=C(c2ccc(CC3CN(CCC(F)(F)F)C3)cc2)c2ccc(C(=O)O)cc2CCC1 [Example 260] has DC50 strictly less than 0.4 nM
## Output -1
